Source listed as patent US5374623A.

System: 45Ca2+-labelled bones (calvaria) of neonatal mice
Assay: Parathyroid hormone-stimulated 45Ca2+ release from cultured mouse calvaria
Format: cell-based
Details: initial phase of inhibition; read-out: IC50 for inhibition of resorption in mouse calvaria
pIC50: −log10 of the molar value.
observable: pIC50

chemsmiles=COc1ccc(C[C@H](NC(=O)N2CCOCC2)C(=O)N[C@@H](CCc2ccccc2)C(=O)COc2ccccc2)cc1 targetentity="45Ca2+-labelled bones (calvaria) of neonatal mice" observedvalue=~7.40
